- System: Pseudomonas aeruginosa V-1
- Test description: MIC, in vitro antibacterial activity (standard strains)
- Format: cell-based
- Experimental setup: Pseudomonas aeruginosa, V1; 10^6 cells/ml; Gram -; read-out: MIC
So I've got a bunch of compounds here, and I need their MIC values.
Reply with a number, then the unit it belongs to.

Asked: Name the reported MIC value associated with the compound CCn1cc(C(=O)O)c(=O)c2cc(F)c(N3CCNCC3)cc21 [NFLX, norfloxacin, reference compound]
Given back: 0.39 µg/mL

Asked: Name the reported MIC value associated with the compound CC1CN(c2c(F)cc3c(=O)c(C(=O)O)cn(C4CC4)c3c2Cl)CC1N (stereo not shown)
Given back: 0.2 µg/mL

Asked: Name the reported MIC value associated with the compound CC1COc2c(N3C[C@@H](N)[C@@H](C)C3)c(F)cc3c(=O)c(C(=O)O)cn1c23.Cl (relative stereo)
Given back: 0.39 µg/mL

Asked: Name the reported MIC value associated with the compound CNCC1CN(c2c(F)cc3c(=O)c(C(=O)O)cn(C4CC4)c3c2Cl)CC1C (stereo not shown)
Given back: 0.39 µg/mL

Asked: Name the reported MIC value associated with the compound C[C@H]1CN(c2c(F)cc3c(=O)c(C(=O)O)cn(C4CC4)c3c2Cl)C[C@H]1N (relative stereo)
Given back: 0.1 µg/mL

Asked: Name the reported MIC value associated with the compound CNCC1CN(c2c(F)cc3c(=O)c(C(=O)O)cn(C4CC4)c3c2F)CC1C (stereo not shown)
Given back: 0.39 µg/mL

Asked: Name the reported MIC value associated with the compound C[C@@H]1CN(c2c(F)cc3c(=O)c(C(=O)O)cn(C4CC4)c3c2Cl)C[C@H]1N (relative stereo)
Given back: 0.1 µg/mL
